Values were extracted from patent US20230295310A1.

Target: T1, human CD3 expressed on cells (Jurkat cells; human primary T cells) (human, UniProt P07766 23-207; P04234 22-171; P09693 23-182)
T1 construct: whole, on cells
T1 sequence (P07766 23-207, chain 1 of 3): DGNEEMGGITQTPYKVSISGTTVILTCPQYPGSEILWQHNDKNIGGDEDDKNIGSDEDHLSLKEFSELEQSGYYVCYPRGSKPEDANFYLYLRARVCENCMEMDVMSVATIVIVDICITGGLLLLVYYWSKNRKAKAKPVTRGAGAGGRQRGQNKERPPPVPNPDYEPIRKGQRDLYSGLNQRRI
T1 sequence (P04234 22-171, chain 2 of 3): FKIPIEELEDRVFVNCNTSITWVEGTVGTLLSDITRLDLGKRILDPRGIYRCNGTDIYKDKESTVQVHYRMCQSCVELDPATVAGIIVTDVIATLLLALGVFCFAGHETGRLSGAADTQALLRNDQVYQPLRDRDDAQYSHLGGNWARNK
T1 sequence (P09693 23-182, chain 3 of 3): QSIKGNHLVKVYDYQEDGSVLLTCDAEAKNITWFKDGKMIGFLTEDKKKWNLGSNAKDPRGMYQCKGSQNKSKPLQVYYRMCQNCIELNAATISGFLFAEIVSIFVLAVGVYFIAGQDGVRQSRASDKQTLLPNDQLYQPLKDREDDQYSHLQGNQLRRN
Experiment: flow cytometry, 25 nM, human primary T cells
List of Binding (FOI) values.
Give the quantity in FOI, number only.

Below, 2 binders whose answers are already recorded.
mAb 255 (antibody, V domains shown, VH/VL only) VH: QVQVQQSGPGLVKPSQTLSLTCAISGDSVSSKYASWNWIRQSPSRGLEWLGRTYYRSKWYNDFAVSVKSRITINADTSKNQFSLHLSSVTPEDTAIYFCAREANGRGYFYYMDVWGKGTTVTVSS VL: EIVLTQSPDFQSVTPKEKVTITCRASQSIGSSLHWYQQKPDQSPKLLIKYASQSISGVPSRFSGSGSGTVFTLTINSLEAEDAAAYFCHQSSGSPHTFGGGTKVEIK	198
mAb 171 (antibody, V domains shown, VH/VL only) VH: EVQLVESGGGLVQPGRSLRLSCAASGFTFADYTMHWVRQAPGQGLEWVSGISWNSGSIDYADSVKGRFIISRDNAKKTLYLQMNSLRAEDTALYYCAKDSSGYGHYYFYYLDVWGKGTTVTVSS VL: EIVMTQSPATLSVSPGERATLSCRASQSVSSNLAWYQQKPGQAPRLLIYSTSTRATGIPARFSGSRSGTEFTLTISSLQSEDSAVYYCQQYNNWPHFGQGTRLEIK	165

Let us examine a further case.
## Input Fill in Binding (FOI) for record mAb 204 (antibody, V domains shown, VH/VL only) VH: QVQLVESGGGVVQSGRSLRLSCAASGFTFSGYGMHWVRQAPGKGLEWVAIVYYDGKNKYYADSVKGRFTISRDNSKNTLYLQMNSLRAEDTAVYYCVRGEGYNWFDPWGQGTLVTVSS VL: EIVMTQSPATLSVSPGERATLSCRASQSVSSNLAWYQQKPGQVPRLLIYGASTRATGIPARFSGSGSGTQFTLTISSLQSEDFAVYYCQQYNNWPLTFGGGTKVEIK
## Output 181
